Kindly state INHIBITION for each of the entries shown.
tested on: Plasmodium berghei; assay: Screen against P. berghei liver stage (PbLuc), transformed with Luciferase, at 10uM; assay type: functional, HepG2; conditions: tested at 10 uM
In all, about 69,000 compounds went through this assay and about 8,600 (12%) showed an effect of 50% or more. The sample holds strong results, similar compounds and a random draw of the others, so the mix is not that of the screen.
Numbers only, in %.

> print(dat)
                                   compound  data.value
1  c1cc(CN2CCOC[C@H]2c2nc(-c3ccncc3)c[nH]2)ccn1       -7.59
2  O=S(=O)(NC1=NCN(CCc2ccccc2)CN1)c1ccc(F)cc1       -4.52

Please examine the following record next.
Indicate the recorded INHIBITION value for this compound: OC1CCN(c2ccnc(NCCc3ccccc3Cl)n2)C1 (stereo not drawn) 93.6
